Please go through the items and note down their Activity.
# Test system: Abutilon theophrasti
# EXPERIMENTAL_DETAILS: Herbicidal activity against Abutilon theophrasti (velvetleaf) at 250 g/ha after 2 weeks
# Assay type: functional

Example results:
MOLECULE | Activity
CC[C@H](C)NC(=O)c1nc(C)c(C)nc1C(=O)Nc1cc(F)ccc1C | <10%
Cc1ccc(F)cc1NC(=O)c1nc(C)c(C)nc1C(=O)NCC(C)C | 30%
Cc1ccc(Cl)cc1NC(=O)c1nc(C)c(C)nc1C(=O)NC(C)C | <10%
CCC(C)NC(=O)c1nc(C)c(C)nc1C(=O)Nc1cc(F)ccc1C (racemic) | 95%
Cc1ccc(Cl)cc1NC(=O)c1nc(C)c(C)nc1C(=O)NCC(C)C | <10%

Give Activity for each listed item.
1. Cc1ccc(F)cc1NC(=O)c1nc(C)c(C)nc1C(=O)NC(C)C
2. CC[C@H](C)NC(=O)c1nc(C)c(C)nc1C(=O)Nc1cc(Cl)ccc1C
3. CCNC(=O)c1nc(C)c(C)nc1C(=O)Nc1cc(Cl)ccc1C
4. CCCNC(=O)c1nc(C)c(C)nc1C(=O)Nc1cc(Cl)ccc1C
5. Cc1ccc(Cl)cc1NC(=O)c1nc(C)c(C)nc1C(=O)NC(C)(C)C
6. CCC(C)NC(=O)c1nc(C)c(C)nc1C(=O)Nc1cc(Cl)ccc1C (racemic)
7. CC[C@@H](C)NC(=O)c1nc(C)c(C)nc1C(=O)Nc1cc(Cl)ccc1C
8. CCCCNC(=O)c1nc(C)c(C)nc1C(=O)Nc1cc(F)ccc1C

(A)
["50%", "<10%", "<10%", "<10%", "<10%", "<10%", "<10%", "<10%"]

* * *

# Test system: Avena fatua
# EXPERIMENTAL_DETAILS: Herbicidal activity against Avena fatua at 5000 g/ha after 2 weeks
# Format: functional
Please go through the items and note down their Activity.

SMILES_STRUCTURE | Activity
CC[C@H](C)NC(=O)c1nc(C)c(C)nc1C(=O)Nc1cc(Cl)ccc1C | 30%

Give Activity for each listed item.
1. CCCCCNC(=O)c1nc(C)c(C)nc1C(=O)Nc1cc(Cl)ccc1C
2. CCNC(=O)c1nc(C)c(C)nc1C(=O)Nc1cc(F)ccc1C

(A)
["<10%", "10%"]

* * *

Please go through the items and note down their Activity.
# Tested on: Avena fatua
# EXPERIMENTAL_DETAILS: Herbicidal activity against Avena fatua at 5000 g/ha after 2 weeks
# Type: functional

Example results:
COMPOUND | OBSERVABLE | RESULT
CCCCCNC(=O)c1nc(C)c(C)nc1C(=O)Nc1cc(F)ccc1C | Activity | <10%
CCNC(=O)c1nc(C)c(C)nc1C(=O)Nc1cc(Cl)ccc1C | Activity | <10%
CCCNC(=O)c1nc(C)c(C)nc1C(=O)Nc1cc(F)ccc1C | Activity | 10%
CCCCNC(=O)c1nc(C)c(C)nc1C(=O)Nc1cc(F)ccc1C | Activity | <10%
CNC(=O)c1nc(C)c(C)nc1C(=O)Nc1cc(Cl)ccc1C | Activity | <10%
CCC(C)NC(=O)c1nc(C)c(C)nc1C(=O)Nc1cc(Cl)ccc1C (racemic) | Activity | 50%

Give Activity for each listed item.
1. CCCNC(=O)c1nc(C)c(C)nc1C(=O)Nc1cc(Cl)ccc1C
2. Cc1ccc(F)cc1NC(=O)c1nc(C)c(C)nc1C(=O)NCC(C)C
3. Cc1ccc(Cl)cc1NC(=O)c1nc(C)c(C)nc1C(=O)NC(C)C
4. CC[C@@H](C)NC(=O)c1nc(C)c(C)nc1C(=O)Nc1cc(Cl)ccc1C

(A)
["<10%", "50%", "50%", "30%"]

(Q) Activity for Cc1ccc(F)cc1NC(=O)c1nc(C)c(C)nc1C(=O)NC(C)C ?
(A) 30%

The values you see were collected from ChEMBL document CHEMBL3046846.
